- tested-on: human ether-à-go-go-related gene (hERG) potassium channel (human)
- assay-protocol: primary screen, population patch clamp on CHO cells stably expressing hERG; higher = less effect of the substance;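 further: peak tail current of the secondary pulse compared with the same well before compound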
About 14,000 (4.5%) of roughly 310,000 compounds showed an effect of 50% or more. The effect is printed as a negative number. This excerpt belongs to a sample that is enriched for strong results.
So basically: hERG current change (%, negative = inhibition) at 10uM at -10% or higher? That is true. Lower than -10%? That is false.

Some solved entries appear below for comparison.
{"molecule": "COc1cc2nc(C3CCC3)n(NC(=O)C(OC(C)=O)c3ccccc3)c(=O)c2cc1OC (centres unmarked)", "answer-label": "true"}
{"molecule": "CCCn1c(Cc2ccccc2)nnc1SCC(=O)N1CCOCC1", "answer-label": "true"}
{"molecule": "O=c1[nH]nc(Cc2ccc3ccccc3n2)c2ccccc12", "answer-label": "true"}

Is hERG current change (%, negative = inhibition) at 10uM at least -10%? Consider CC(C)N1CCN(Cc2cccc(-c3ccco3)c2)CC1CCO (centres unmarked)
false

Confirm if hERG current change (%, negative = inhibition) at 10uM reported for the molecule Cc1ccc(CN2CCN(C3CCCC3)C(CCO)C2)s1 (centres unmarked) is -10% or above.
false

Does the molecule COc1ccc(Cl)cc1NC(=O)CN(C)C(=O)CCNC(=O)c1ccccc1OC have recorded hERG current change (%, negative = inhibition) at 10uM that is -10% or more?
true

Entry CCCCN1C[C@H](Cc2ccccc2)[C@@H](CC(=O)Nc2ccccc2)C1=O : is its hERG current change (%, negative = inhibition) at 10uM no less than -10%?
false

Could you verify whether the entry CCCCN1C[C@H](C)[C@@H](CC(=O)NCc2ccccc2)C1=O shows hERG current change (%, negative = inhibition) at 10uM of no less than -10%?
false

Given the entry O=C(N/N=C\c1c(O)ccc2ccccc12)c1ccc(O)cc1 , answer whether its hERG current change (%, negative = inhibition) at 10uM meets or surpasses -10%.
true

State whether the measured hERG current change (%, negative = inhibition) at 10uM reaches -10%, counting equality as reaching it, for CCOc1ncccc1C(=O)Nc1cccc(S(=O)(=O)NC2=NCCC2)c1
true

Exam item: decide whether the reported hERG current change (%, negative = inhibition) at 10uM for CCCCC[C@H]1CN(CCCC)C(=O)[C@@H]1CC(=O)NCc1ccc(OC)cc1 is at least -10%.
false

Reported hERG current change (%, negative = inhibition) at 10uM reaches at least -10% for Cc1onc(C(=O)NCc2cccs2)c1[N+](=O)[O-] ?
true

hERG current change (%, negative = inhibition) at 10uM >= -10% for CCC(C)(C)NC(=O)C(c1ccc(OC)cc1)N(C(=O)CCC(=O)Nc1cc(C)on1)c1ccc(OC)c(OC)c1 (centres unmarked) ?
true

* * *

In this section, each of the compounds is paired with its reported hERG current change (%, negative = inhibition) at 10uM.
- tested-on: human ether-à-go-go-related gene (hERG) potassium channel (human, UniProt Q12809)
- Sequence (Q12809 whole entry, looked up): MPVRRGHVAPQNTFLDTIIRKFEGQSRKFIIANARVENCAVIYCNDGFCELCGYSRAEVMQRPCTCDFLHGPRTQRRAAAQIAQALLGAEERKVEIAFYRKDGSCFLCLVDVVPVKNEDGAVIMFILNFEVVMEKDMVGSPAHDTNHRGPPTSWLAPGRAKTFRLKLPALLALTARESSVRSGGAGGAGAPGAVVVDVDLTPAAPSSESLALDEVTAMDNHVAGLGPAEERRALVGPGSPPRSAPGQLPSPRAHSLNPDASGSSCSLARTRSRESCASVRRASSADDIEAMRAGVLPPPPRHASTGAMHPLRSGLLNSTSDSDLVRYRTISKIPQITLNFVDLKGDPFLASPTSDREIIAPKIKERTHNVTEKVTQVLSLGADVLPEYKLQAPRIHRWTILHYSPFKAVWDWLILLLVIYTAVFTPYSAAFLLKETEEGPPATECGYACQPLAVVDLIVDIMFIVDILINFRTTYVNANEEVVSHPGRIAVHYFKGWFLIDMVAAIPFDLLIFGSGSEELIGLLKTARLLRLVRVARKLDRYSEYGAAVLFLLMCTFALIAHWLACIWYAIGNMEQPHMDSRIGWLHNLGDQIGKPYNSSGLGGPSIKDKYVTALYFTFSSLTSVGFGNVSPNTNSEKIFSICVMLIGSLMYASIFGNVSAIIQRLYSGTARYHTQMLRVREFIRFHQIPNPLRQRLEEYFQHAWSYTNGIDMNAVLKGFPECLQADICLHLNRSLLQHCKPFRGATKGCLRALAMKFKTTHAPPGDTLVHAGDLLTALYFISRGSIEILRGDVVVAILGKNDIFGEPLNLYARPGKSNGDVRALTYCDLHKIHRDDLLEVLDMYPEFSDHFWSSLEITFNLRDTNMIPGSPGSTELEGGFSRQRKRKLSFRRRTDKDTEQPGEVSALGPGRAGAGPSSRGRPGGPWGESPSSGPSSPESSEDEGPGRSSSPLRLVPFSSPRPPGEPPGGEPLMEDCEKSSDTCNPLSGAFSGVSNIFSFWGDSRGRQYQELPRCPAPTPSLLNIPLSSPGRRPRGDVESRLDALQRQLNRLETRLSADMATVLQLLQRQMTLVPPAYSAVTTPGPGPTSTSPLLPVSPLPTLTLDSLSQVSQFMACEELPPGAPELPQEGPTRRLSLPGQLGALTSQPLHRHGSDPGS
- assay-protocol: primary screen, population patch clamp on CHO cells stably expressing hERG; higher = less effect of the substance
Screen size: about 310,000 compounds; about 14,000 (4.5%) showed an effect of 50% or more. The effect is printed as a negative number. The full list was thinned out, with strong results kept by preference.
Just the number in %, nothing appended.

{"compound": "CCOC(=O)c1cnc2c(Cl)cccc2c1NCCN(C)C.Cl", "units-of-measure": "%", "recorded-measurement": -25.6}
{"compound": "CCOC(=O)c1c(C)[nH]c(C)c1S(=O)(=O)NCCc1sccc1C", "units-of-measure": "%", "recorded-measurement": -0.705}
{"compound": "COCCCNC(=O)Cn1cc2c(n1)CCC(C)C2 (centres unmarked)", "units-of-measure": "%", "recorded-measurement": 1.99}
{"compound": "O=C(Cn1cc2c(n1)CCCC2)NCCCN1CCN(c2ccccc2F)CC1", "units-of-measure": "%", "recorded-measurement": -31.1}
{"compound": "CCCN1CCN(CCCNC(=O)Cn2cc3c(n2)CCCC3)CC1", "units-of-measure": "%", "recorded-measurement": -7.41}

Just so you know, measured hERG current change (%, negative = inhibition) at 10uM for Cc1ccc(C)c(N2CCN(CCCNC(=O)Cn3cc4c(n3)CCCCC4)CC2)c1 came out at -69.3

Please fill in: hERG current change (%, negative = inhibition) at 10uM reported for CCOC(=O)c1cnc2c(OC)cccc2c1Nc1ccc2c(c1)OCCO2 = -56.3

hERG current change (%, negative = inhibition) at 10uM reported for this compound CCOC(=O)c1cnc2c(OC)cccc2c1NCc1cccnc1 : -72.2

Recorded hERG current change (%, negative = inhibition) at 10uM (compound CCOC(=O)c1cccc(NC(=O)C2CCCO2)c1 (centres unmarked) ): 4.7

Sure, the documented hERG current change (%, negative = inhibition) at 10uM for COc1ccc(S(=O)(=O)Nc2ccccn2)cc1 is 13.8

Entry CC1=C(C(=O)N2CCCC(CCC(=O)NCc3ccc(F)c(F)c3)C2)OCCO1 (centres unmarked) — recorded hERG current change (%, negative = inhibition) at 10uM = 3.36

* * *

- tested-on: human ether-à-go-go-related gene (hERG) potassium channel (human, UniProt Q12809)
- assay-protocol: primary screen, population patch clamp on CHO cells stably expressing hERG; higher = less effect of the substance
Hit rate of the full screen: of about 310,000 compounds, about 14,000 (4.5%) showed an effect of 50% or more. Effects have a minus sign here. For the sample, strong results were picked, then their nearest neighbours and some compounds at random.
measurement-label: hERG current change (%, negative = inhibition) at 10uM (%)
Entry rule: numbers only, all in %.

// below: answered molecules
{"molecule": "Cc1ccc(OCC(=O)N(Cc2nnc(-c3ccccc3Cl)o2)C2CC2)cc1C", "units-of-measure": "%", "recorded-measurement": -44.1}
{"molecule": "Cc1ccc2[nH]c(=O)c(CN(Cc3cccs3)C(=S)NCC3CCCO3)cc2c1 (stereo not shown)", "units-of-measure": "%", "recorded-measurement": 8.11}
{"molecule": "CCOC(=O)NCN1C(=O)C2C3C=CC(C3)C2C1=O (stereo not shown)", "units-of-measure": "%", "recorded-measurement": -11.9}
{"molecule": "CCN(CC)S(=O)(=O)c1cccc(-c2nnc(SCCCC(=O)c3ccccc3)o2)c1", "units-of-measure": "%", "recorded-measurement": -23.8}
{"molecule": "COc1cc(CNCCc2ccc(S(N)(=O)=O)cc2)ccc1OCc1ccc(Cl)cc1.Cl", "units-of-measure": "%", "recorded-measurement": -31.8}

Recorded hERG current change (%, negative = inhibition) at 10uM (molecule O=C(NCCCN1CCOCC1)c1cccc(S(=O)(=O)N2CCOCC2)c1 ): 8.97

Entry NC(=O)C1(N2CCCCC2)CCN(C(=O)c2ccc(-n3cnnn3)cc2)CC1 , hERG current change (%, negative = inhibition) at 10uM reported as -30.6

hERG current change (%, negative = inhibition) at 10uM recorded for this molecule, COc1ccc(COC(=O)C2CCN(S(=O)(=O)c3ccc(Cl)cc3)CC2)cc1 , is 30

So for Cn1c(O)c(C=NC2CCN(Cc3ccccc3)CC2)c(=O)[nH]c1=O , the logged hERG current change (%, negative = inhibition) at 10uM turned out to be -26.5

Summary for this molecule, O=C(CSc1ccccc1)N[C@@H](Cc1ccccc1)C(=O)O : hERG current change (%, negative = inhibition) at 10uM is 13.7

Cc1ccc(S(=O)(=O)N2CCCCC2)cc1C(=O)NCCCN1CCOCC1 has a reported hERG current change (%, negative = inhibition) at 10uM of 16.7

hERG current change (%, negative = inhibition) at 10uM in this record for O=C(Nc1sc2c(c1C(=O)O)CCCCC2)c1cccnc1 : 16.7

Consider CCOC(=O)c1oc2ccc(/C=N/O)c(Cl)c2c1C . Its measured hERG current change (%, negative = inhibition) at 10uM is 37.3

* * *

- tested-on: human ether-à-go-go-related gene (hERG) potassium channel (human, UniProt Q12809)
- assay-protocol: primary screen, population patch clamp on CHO cells stably expressing hERG; higher = less effect of the substance
Out of some 310,000 compounds screened, about 14,000 (4.5%) showed an effect of 50% or more. Effects have a minus sign here. The sample holds strong results, similar compounds and a random draw of the others, so the mix is not that of the screen.
Reported hERG current change (%, negative = inhibition) at 10uM values are given for each entry in this list.
# value in %; strip the unit string

{"molecule": "Cc1cccn2c(=O)c3cc(C(=O)NCC4CCCO4)c(=N)n(CCc4ccccc4)c3nc12 (stereo not drawn)", "tested-on": "human ether-à-go-go-related gene (hERG) potassium channel (human, UniProt Q12809)", "recorded-measurement": -76.7}

// recorded hERG current change (%, negative = inhibition) at 10uM for CCc1nnc(NC(=O)CSc2nnc(COc3ccccc3C)o2)s1 : 15.2

Form: molecule = CC1CCN(c2nc3c(=O)[nH]c(N)nc3n2[C@@H]2O[C@H](CO)[C@@H](O)[C@H]2O)CC1 ; hERG current change (%, negative = inhibition) at 10uM = 13.6
